B1: TPR t1 (parent)
chain: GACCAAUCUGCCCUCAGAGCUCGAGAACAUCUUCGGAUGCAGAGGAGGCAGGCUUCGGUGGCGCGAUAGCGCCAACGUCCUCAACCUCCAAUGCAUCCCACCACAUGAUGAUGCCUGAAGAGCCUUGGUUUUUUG

# Variants of: B1
# assay.notes: polymerase ribozyme fitness, log enrichment relative to wild type (log ratio); higher = more active; in vitro selection for triplet polymerase activity
property.name: polymerase ribozyme fitness (log ratio)
One number for each entry.

# count of solved cases: 4
- residues: "GACCAAUCUGCCCUCAGAGCUCGAGAACAUCUUCGGAUGCAGAGGUGGCAGGCUUCGGUGGCGCGAUAGCGCCAACGUCCUCACCCUCCAAUGCAUCCCACCACAUGAUGAUGCCUGAAGAGCCUUGGUUUUUUG [A46U A84C]"
  property.name: "polymerase ribozyme fitness (log ratio)"
  endpoint.value: -1.04
- residues: "GACCAAUCUGCCCUCAGAGCUCGAGAACAUCUUCGGAUGCAGAGGAGGCAGGCUUCGCUGGCGCGAUAGCGCCAACGUCCUCAACCUCCAAUGCAUCCCAUCACAUGAUGAUGCCUGAAGAACCUUGGUUUUUUG [G58C C101U G122A]"
  property.name: "polymerase ribozyme fitness (log ratio)"
  endpoint.value: -1.1
- residues: "GACCGAUCUGCCCUCAGAGCUCGAGAACAUCUUCGGAUGCAGAGGAGGCAGGCUUCGGUGGCGCGAUAGCGCCAACGUCCUCUACCUCCAAUGCAUCCCACCACAUGAUGAUGCCUGAAGAGCCUUGGUUUUUUG [A5G A83U]"
  property.name: "polymerase ribozyme fitness (log ratio)"
  endpoint.value: -1.18
- residues: "GACCCAUCUGCCUUCAGAGCUCGAGAACAUCUUCGGAUGCAGACGAGUCAGGCUUCGGUGGCGCGAUAGCGCCAACGUCCUCAACCUCCAAUGCAUCCCACCACAUGAUGAUGCUUGAAGAGCCUUGGUUUUUUG [A5C C13U G44C G48U C115U]"
  property.name: "polymerase ribozyme fitness (log ratio)"
  endpoint.value: -3.4

Please supply polymerase ribozyme fitness (log ratio) for each of the following items, keeping them in order.
1. GACCAAUCUGCGCUCAGAGCUCGAGCCCAUCUUCGUAUGCAGAGGAGGCAGGCUUCGGUGGCGCGAUAGCGCCAACGUCCUCAACCUCCAAUGCAUACCAUCACAUGAAGAUGCCUGAAGAGCCUUGGUUUUUUG [C12G A26C A27C G36U C97A C101U U109A]
2. GACCAAUUUGCCCUCAGAGCUCGAGAACAUCUUCGGAUGCAGAGGAGGCGGGCUUCGGUGGCGCGAUAGCGCCAACGACCUCAAACUCCAAUGCAUCCCACCACAUGAUGAUGCCUGAAGAGCCUUGGUUUUUUG [C8U A50G U78A C85A]

Ans.
1. -7.51
2. -0.938
